measured target: HuR dimerization (HuR-Nluc + HuR-Cluc reporter, U251 cells) (Homo sapiens, UniProt Q15717)
Sequence (Q15717 2-326 limits assumed): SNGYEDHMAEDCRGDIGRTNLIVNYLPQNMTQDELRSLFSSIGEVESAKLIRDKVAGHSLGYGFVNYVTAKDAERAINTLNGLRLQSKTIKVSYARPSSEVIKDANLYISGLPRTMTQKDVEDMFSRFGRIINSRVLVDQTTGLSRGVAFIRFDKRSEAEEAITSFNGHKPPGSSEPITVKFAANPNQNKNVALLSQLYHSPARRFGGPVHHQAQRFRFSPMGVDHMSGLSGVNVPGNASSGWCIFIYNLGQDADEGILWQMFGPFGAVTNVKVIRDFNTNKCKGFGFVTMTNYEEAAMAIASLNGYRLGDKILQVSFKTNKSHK
assay: cell-based split firefly luciferase - HuR dimerization assay
details: read-out: IC50 of inhibition of HuR dimerization; U251 cells co-expressing HuR-Nluc and HuR-Cluc; 6 hours of treatment
property measured: pIC50
Conceptually, pIC50 converts a concentration in mol/L into minus its log10.

Recorded pIC50 for `CN(c1ccc2ncc(-c3ccc4cn[nH]c4c3)n2n1)C1CCOCC1` with HuR dimerization (HuR-Nluc + HuR-Cluc reporter, U251 cells) (Homo sapiens, UniProt Q15717), please?
5.92

====

measured target: HuR dimerization (HuR-Nluc + HuR-Cluc reporter, U251 cells) (Homo sapiens, UniProt Q15717)
assay: cell-based split firefly luciferase - HuR dimerization assay
details: read-out: IC50 for inhibition of HuR dimerization, before increase in HuR dimerization; U251 with dox-inducible HuR-dimerization reporters; 6 hours
property measured: pIC50
Conceptually, pIC50 converts a concentration in mol/L into minus its log10.

Entry under review: `CN(c1ccc2ncc(-c3ccc4cn[nH]c4c3)n2n1)C1CCOCC1` . Reported pIC50?
5.92
